Test system: Trypanosoma brucei
Assay: DNDI: Inhibition of Human African Trypanosomiasis, Cross 22, in vitro
Format: functional, organism-based
Entries and their measured IC50 follow.
Write the number in µg/mL without appending the unit.

Please review the following examples before continuing.
> print(dat)
                                   compound  measure.name  numeric.readout
1  CC1(C)[C@H]2CC[C@@H](CNCc3coc(-c4ccc(Cl)cc4)n3)[C@@H]1C2          IC50             1.04
2        CCOc1ccc(-c2nc(CNC3CCCCCC3)co2)cc1          IC50             1.12
3  CCCCCC(C)NCc1coc(-c2ccc(-c3ccccc3)cc2)n1 (centres undefined)          IC50              0.4
4  C[C@H]1C(NCc2coc(-c3ccc(Cl)cc3)n2)C[C@@H]2C[C@H]1C2(C)C (some centres undefined)          IC50              0.9
5  CCCCOc1ccc(-c2nc(CN[C@@H]3C[C@@H]4C[C@H]([C@H]3C)C4(C)C)co2)cc1          IC50             0.58
6      CCCCOc1ccc(-c2nc(CNC3CCCCCC3)co2)cc1          IC50              0.4
7         Brc1ccc(-c2nc(CNC3CCCCCC3)co2)cc1          IC50             3.56
8  CCCCCC(C)NCc1coc(-c2ccc(OCCCC)cc2)n1 (centres undefined)          IC50             0.36

**Query** Any idea what its IC50 is? The compound is CCCCCC(C)NCc1coc(-c2ccc(CCCC)cc2)n1 (centres undefined)
**Result** 0.3

**Query** Entry CCCCCC(C)NCc1coc(-c2ccc(OCC)cc2)n1 (centres undefined) has what IC50?
**Result** 0.67

**Query** Would you mind telling me what IC50 value was observed for `Clc1ccc(-c2nc(CNC3CCCCCC3)co2)cc1` ?
**Result** 1.45
